assay: Peptide stability in simulated gastric fluid (SGF); assay type: in vitro ADME; conditions: pig, simulated gastric fluid (SGF) with porcine pepsin, Table 3-3, porcine pepsin, pH 1.2, 37° C., 10 μM, 1 h, read-out: SGF (% remaining 1 h)
*1 amine or outer side, *2 acyl side, *3 side chain or, on linkers, in order; H or OH if unused. Where a SMILES comes first, the peptide text is derived from it. Bridges are numbered along the chain shown (N, C = ends). [ ]: non-standard residue; d: D form. Trp(1-Me) = Cn1cc(C[C@H](N)C(=O)O)c2ccccc21; 2Nal = N[C@@H](Cc1ccc2ccccc2c1)C(=O)O; AEF = NCCOc1ccc(C[C@H](N)C(=O)O)cc1; X1 = O=C(Cc1ccc(CN[*:1])cc1)[*:2]; αMeL = CC(C)C[C@](C)(N)C(=O)O; CH2COCH2 = O=C(C[*:1])C[*:2]; 3Amb = NCc1cccc(C(=O)O)c1; Dab = NCC[C@H](N)C(=O)O
Could you please mark yes for values of remaining at 1 h, 10 μM below 20% and no for values at or above it?

Past entries and their recorded results:
[
  {
    "molecule": "CC(C)C[C@]1(C)NC(=O)[C@H](Cc2ccc3ccccc3c2)NC(=O)[C@H](Cc2ccccc2)NC(=O)[C@@H]2CCNC(=O)CC[C@H](NC(=O)[C@H](CO)NC(=O)Cc3ccc(cc3)CNC(=O)CC[C@@H](C(=O)N[C@@H](CCN)C(N)=O)NC1=O)C(=O)N[C@@H](Cc1c[nH]c3ccccc13)C(=O)N[C@@H](CCC(N)=O)C(=O)N2 [Compound 130] ([X1]SEWQ[Dab]F[2Nal][αMeL]E[Dab]-NH2; lactam 3-6, N-10)",
    "answer_label": "no"
  },
  {
    "molecule": "CC(C)C[C@@H]1NC(=O)[C@H](Cc2ccc3ccccc3c2)NC(=O)[C@H](Cc2ccc(OCCN)cc2)NC(=O)[C@@H]2CSCC(=O)CSC[C@H](NC(=O)[C@H](CO)NC(=O)c3cccc(c3)CNC(=O)CC[C@@H](C(=O)N[C@@H](CCCNC(=N)N)C(N)=O)NC1=O)C(=O)N[C@@H](Cc1c[nH]c3ccccc13)C(=O)N[C@@H](CCC(N)=O)C(=O)N2 [Compound 39] ([3Amb]SCWQC[AEF][2Nal]LER-NH2; linker 3-6 via CH2COCH2; lactam N-10)",
    "answer_label": "no"
  },
  {
    "molecule": "CC(=O)N[C@@H](CC(=O)O)C(=O)N[C@H]1CCC(=O)NCCCC[C@@H](C(=O)NCC(N)=O)NC(=O)[C@](C)(CC(C)C)NC(=O)[C@H](Cc2ccc3ccccc3c2)NC(=O)[C@H](Cc2c[nH]c3ccccc23)NC(=O)[C@@H]2CSCC(=O)CSC[C@H](NC(=O)[C@H](CO)NC1=O)C(=O)N[C@@H](Cc1c[nH]c3ccccc13)C(=O)N[C@@H](CCC(N)=O)C(=O)N2 [Compound 60] (Ac-DESCWQCW[2Nal][αMeL]KG-NH2; lactam 2-11; linker 4-7 via CH2COCH2)",
    "answer_label": "yes"
  },
  {
    "molecule": "CC(=O)N[C@@H](CC(=O)O)C(=O)N[C@H]1CCC(=O)NCCCC[C@@H](C(=O)N[C@@H](CCCNC(=N)N)C(N)=O)NC(=O)[C@](C)(CC(C)C)NC(=O)[C@H](Cc2ccc3ccccc3c2)NC(=O)[C@H](Cc2c[nH]c3ccccc23)NC(=O)[C@@H]2CSCC(=O)CSC[C@H](NC(=O)[C@H]([C@@H](C)O)NC1=O)C(=O)N[C@@H](Cc1c[nH]c3ccccc13)C(=O)N[C@@H](CCC(N)=O)C(=O)N2 [Compound 57] (Ac-DETCWQCW[2Nal][αMeL]KR-NH2; lactam 2-11; linker 4-7 via CH2COCH2)",
    "answer_label": "no"
  }
]

# evaluate next
Dear reviewer, please state whether CC(=O)N[C@H]1CCCCNC(=O)CC[C@@H](C(=O)N[C@@H](CCCNC(=N)N)C(N)=O)NC(=O)[C@H](CC(C)C)NC(=O)[C@H](Cc2ccc3ccccc3c2)NC(=O)[C@H](Cc2c[nH]c3ccccc23)NC(=O)[C@@H]2CSCC(=O)CSC[C@H](NC(=O)[C@H](CO)NC1=O)C(=O)N[C@@H](Cc1cn(C)c3ccccc13)C(=O)N[C@@H](CCC(N)=O)C(=O)N2 [Compound 27] (Ac-KSC[Trp(1-Me)]QCW[2Nal]LER-NH2; lactam 1-10; linker 3-6 via CH2COCH2) has remaining at 1 h, 10 μM strictly beneath 20%.
yes

---

The entries below are paired with their reported IC50.
target: IL-23 mediated phospho-STAT3 formation in DB cells (Homo sapiens); assay: Functional inhibition of IL-23 mediated STAT3 signalling (phospho-STAT3 Tyr705 MSD) in DB cells; type: cell-based; details: Table 3-1; DB cells; read-out: IC50 (pSTAT3)
Sequence (Q5VWK5 24-629 limits assumed): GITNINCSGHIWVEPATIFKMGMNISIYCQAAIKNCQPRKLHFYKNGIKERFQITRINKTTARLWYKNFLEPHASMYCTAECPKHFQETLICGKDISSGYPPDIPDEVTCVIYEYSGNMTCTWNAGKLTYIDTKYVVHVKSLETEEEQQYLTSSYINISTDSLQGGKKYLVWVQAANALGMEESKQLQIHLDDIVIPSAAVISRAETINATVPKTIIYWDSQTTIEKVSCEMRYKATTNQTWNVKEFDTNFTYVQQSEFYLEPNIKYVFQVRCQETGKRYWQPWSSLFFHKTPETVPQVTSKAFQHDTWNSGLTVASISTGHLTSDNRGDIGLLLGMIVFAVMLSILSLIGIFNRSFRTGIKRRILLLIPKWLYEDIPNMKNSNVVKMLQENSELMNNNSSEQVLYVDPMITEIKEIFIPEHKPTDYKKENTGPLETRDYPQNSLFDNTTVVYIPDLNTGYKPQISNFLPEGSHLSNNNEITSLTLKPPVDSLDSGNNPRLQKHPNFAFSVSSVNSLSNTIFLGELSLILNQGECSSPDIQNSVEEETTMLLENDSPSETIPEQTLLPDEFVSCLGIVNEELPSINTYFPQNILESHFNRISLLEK
*1 amine or outer side, *2 acyl side, *3 side chain or, on linkers, in order; H or OH if unused. Where a SMILES comes first, the peptide text is derived from it. Bridges are numbered along the chain shown (N, C = ends). [ ]: non-standard residue; d: D form. 2Nal = N[C@@H](Cc1ccc2ccccc2c1)C(=O)O; CH2COCH2 = O=C(C[*:1])C[*:2]; αMeK = C[C@](N)(CCCCN)C(=O)O

[
  {
    "molecule": "CC(=O)N[C@H]1CCCCNC(=O)CC[C@@H](C(=O)N[C@@H](CCCNC(=N)N)C(N)=O)NC(=O)[C@H](CC(C)C)NC(=O)[C@H](Cc2ccc3ccccc3c2)NC(=O)[C@H](Cc2c[nH]c3ccccc23)NC(=O)[C@@H]2CSCC(=O)CSC[C@H](NC(=O)[C@H](CO)NC1=O)C(=O)N[C@@H](Cc1ccc3ccccc3c1)C(=O)N[C@@H](CCC(N)=O)C(=O)N2 [Compound 25] (Ac-KSC[2Nal]QCW[2Nal]LER-NH2; lactam 1-10; linker 3-6 via CH2COCH2)",
    "reading": "> 1000 nM"
  }
]

Moving on to another molecule below.
I would be grateful if you could share the reported IC50 for CC(=O)N[C@@H](CC(=O)O)C(=O)N[C@H]1CCC(=O)NCCCC[C@@H](C(=O)N[C@@H](CCC(=O)O)C(=O)N[C@@H](CC(N)=O)C(=O)NCC(N)=O)NC(=O)[C@](C)(CCCCN)NC(=O)[C@H](Cc2ccc3ccccc3c2)NC(=O)[C@H](Cc2c[nH]c3ccccc23)NC(=O)[C@@H]2CSCC(=O)CSC[C@H](NC(=O)[C@H](CO)NC1=O)C(=O)N[C@@H](Cc1c[nH]c3ccccc13)C(=O)N[C@@H](CCC(N)=O)C(=O)N2 [Compound 61] (Ac-DESCWQCW[2Nal][αMeK]KENG-NH2; lactam 2-11; linker 4-7 via CH2COCH2) .
> 1000 nM

These entries and their values trace back to patent US20250154198A1.
